Measured target: mutant (D57N)-mouse(m)RNR-α (Mus musculus, UniProt P07742, D57N)
Sequence (P07742 1-792 D57N): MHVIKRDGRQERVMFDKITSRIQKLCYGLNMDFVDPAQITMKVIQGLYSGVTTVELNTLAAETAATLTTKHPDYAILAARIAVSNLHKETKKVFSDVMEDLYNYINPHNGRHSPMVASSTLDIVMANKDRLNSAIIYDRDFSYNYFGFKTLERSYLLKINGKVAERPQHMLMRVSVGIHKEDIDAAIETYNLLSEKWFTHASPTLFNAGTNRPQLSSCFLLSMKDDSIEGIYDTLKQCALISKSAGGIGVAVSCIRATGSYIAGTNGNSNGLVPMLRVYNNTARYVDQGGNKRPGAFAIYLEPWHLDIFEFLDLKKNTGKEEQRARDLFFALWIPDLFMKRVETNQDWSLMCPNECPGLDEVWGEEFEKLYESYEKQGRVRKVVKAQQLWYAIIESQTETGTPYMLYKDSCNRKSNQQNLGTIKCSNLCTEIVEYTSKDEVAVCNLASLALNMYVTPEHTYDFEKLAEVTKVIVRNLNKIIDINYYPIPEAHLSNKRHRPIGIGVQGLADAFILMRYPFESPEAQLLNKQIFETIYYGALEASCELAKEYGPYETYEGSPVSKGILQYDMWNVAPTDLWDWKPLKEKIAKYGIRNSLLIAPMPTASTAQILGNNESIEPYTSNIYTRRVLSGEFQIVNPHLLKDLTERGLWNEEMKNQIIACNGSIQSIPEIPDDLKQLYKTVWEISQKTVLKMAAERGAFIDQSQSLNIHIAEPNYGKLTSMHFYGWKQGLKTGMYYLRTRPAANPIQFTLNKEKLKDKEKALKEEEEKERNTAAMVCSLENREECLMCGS
Assay type: cell-based
Protocol conditions: 3 h treatment; 5, 50, 300 μM ClF, ClA, FlUMP; D57N-mRNR-α 3T3 cells
Quantity: RNR reductase activity in D57N-α-expressing lines after drug treatment

{"columns": ["Compound", "Observed"],
 "data": [
  ["Nc1nc(F)nc2c1ncn2[C@@H]1O[C@H](COP(=O)(O)O)[C@@H](O)[C@@H]1O [FlUMP]", "not suppressed"],
  ["Nc1nc(Cl)nc2c1ncn2[C@H]1C[C@H](O)[C@@H](CO)O1 [ClA, cladribine]", "not suppressed"]
]}
